ASSAY TARGET: human CXCR3-A receptor (Homo sapiens (Human), UniProt P49682)
Sequence (P49682 whole entry): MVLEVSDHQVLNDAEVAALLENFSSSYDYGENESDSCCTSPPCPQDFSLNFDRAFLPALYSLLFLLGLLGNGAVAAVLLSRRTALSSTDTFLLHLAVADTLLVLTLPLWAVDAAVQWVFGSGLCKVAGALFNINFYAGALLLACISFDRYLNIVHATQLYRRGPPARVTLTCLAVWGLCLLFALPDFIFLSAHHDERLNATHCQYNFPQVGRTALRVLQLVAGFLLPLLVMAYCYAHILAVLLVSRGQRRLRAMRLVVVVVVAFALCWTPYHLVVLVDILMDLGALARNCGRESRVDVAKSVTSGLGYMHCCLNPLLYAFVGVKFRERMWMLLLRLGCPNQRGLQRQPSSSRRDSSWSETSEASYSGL
TEST DESCRIPTION: 125I-CXCL10 competition radioligand binding assay;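 further: One-hour incubation of membranes with tracer, bound radioligand separated by glass fibre filtration, IC50 derived from four-parameter nonlinear fit of competition curves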
COND: displacement of 125I-CXCL10 from membranes of CHO cells expressing human recombinant CXCR3-A
MEASURED ENDPOINT: pIC50
// pIC50 is dimensionless: -log10 of concentration (M)

# annotated cases, reported pIC50 shown
[
  {
    "MOLECULE": "CCCCN(Cc1ccc(OCCN2C(=O)CCC2=O)c(CC)c1)C(CC(=O)O)c1ccc(Cl)c(F)c1 (stereo not shown)",
    "ENDPOINT VALUE": 7.10
  },
  {
    "MOLECULE": "CCN(Cc1ccc(OCCn2c(=O)ccn(C)c2=O)c(OC)c1)C(CC(=O)O)c1ccc(Cl)c(Cl)c1 (stereo not shown)",
    "ENDPOINT VALUE": 6.51
  },
  {
    "MOLECULE": "COc1cc(CN(CC(C)C)C(CC(=O)O)c2ccc(Cl)c(Cl)c2)ccc1SCCN1C(=O)CCC1=O (stereo not shown)",
    "ENDPOINT VALUE": 7.14
  }
]

Lookup: # query: pIC50 of entry CCCN(Cc1ccc(OCCN2C(=O)CCC2=O)c(F)c1)C(CC(=O)O)c1ccc(Cl)c(Cl)c1 (stereo not shown)
Found: 6.30
